# system under test: USP9x (Mus musculus, UniProt P70398)
# Sequence (P70398 whole entry): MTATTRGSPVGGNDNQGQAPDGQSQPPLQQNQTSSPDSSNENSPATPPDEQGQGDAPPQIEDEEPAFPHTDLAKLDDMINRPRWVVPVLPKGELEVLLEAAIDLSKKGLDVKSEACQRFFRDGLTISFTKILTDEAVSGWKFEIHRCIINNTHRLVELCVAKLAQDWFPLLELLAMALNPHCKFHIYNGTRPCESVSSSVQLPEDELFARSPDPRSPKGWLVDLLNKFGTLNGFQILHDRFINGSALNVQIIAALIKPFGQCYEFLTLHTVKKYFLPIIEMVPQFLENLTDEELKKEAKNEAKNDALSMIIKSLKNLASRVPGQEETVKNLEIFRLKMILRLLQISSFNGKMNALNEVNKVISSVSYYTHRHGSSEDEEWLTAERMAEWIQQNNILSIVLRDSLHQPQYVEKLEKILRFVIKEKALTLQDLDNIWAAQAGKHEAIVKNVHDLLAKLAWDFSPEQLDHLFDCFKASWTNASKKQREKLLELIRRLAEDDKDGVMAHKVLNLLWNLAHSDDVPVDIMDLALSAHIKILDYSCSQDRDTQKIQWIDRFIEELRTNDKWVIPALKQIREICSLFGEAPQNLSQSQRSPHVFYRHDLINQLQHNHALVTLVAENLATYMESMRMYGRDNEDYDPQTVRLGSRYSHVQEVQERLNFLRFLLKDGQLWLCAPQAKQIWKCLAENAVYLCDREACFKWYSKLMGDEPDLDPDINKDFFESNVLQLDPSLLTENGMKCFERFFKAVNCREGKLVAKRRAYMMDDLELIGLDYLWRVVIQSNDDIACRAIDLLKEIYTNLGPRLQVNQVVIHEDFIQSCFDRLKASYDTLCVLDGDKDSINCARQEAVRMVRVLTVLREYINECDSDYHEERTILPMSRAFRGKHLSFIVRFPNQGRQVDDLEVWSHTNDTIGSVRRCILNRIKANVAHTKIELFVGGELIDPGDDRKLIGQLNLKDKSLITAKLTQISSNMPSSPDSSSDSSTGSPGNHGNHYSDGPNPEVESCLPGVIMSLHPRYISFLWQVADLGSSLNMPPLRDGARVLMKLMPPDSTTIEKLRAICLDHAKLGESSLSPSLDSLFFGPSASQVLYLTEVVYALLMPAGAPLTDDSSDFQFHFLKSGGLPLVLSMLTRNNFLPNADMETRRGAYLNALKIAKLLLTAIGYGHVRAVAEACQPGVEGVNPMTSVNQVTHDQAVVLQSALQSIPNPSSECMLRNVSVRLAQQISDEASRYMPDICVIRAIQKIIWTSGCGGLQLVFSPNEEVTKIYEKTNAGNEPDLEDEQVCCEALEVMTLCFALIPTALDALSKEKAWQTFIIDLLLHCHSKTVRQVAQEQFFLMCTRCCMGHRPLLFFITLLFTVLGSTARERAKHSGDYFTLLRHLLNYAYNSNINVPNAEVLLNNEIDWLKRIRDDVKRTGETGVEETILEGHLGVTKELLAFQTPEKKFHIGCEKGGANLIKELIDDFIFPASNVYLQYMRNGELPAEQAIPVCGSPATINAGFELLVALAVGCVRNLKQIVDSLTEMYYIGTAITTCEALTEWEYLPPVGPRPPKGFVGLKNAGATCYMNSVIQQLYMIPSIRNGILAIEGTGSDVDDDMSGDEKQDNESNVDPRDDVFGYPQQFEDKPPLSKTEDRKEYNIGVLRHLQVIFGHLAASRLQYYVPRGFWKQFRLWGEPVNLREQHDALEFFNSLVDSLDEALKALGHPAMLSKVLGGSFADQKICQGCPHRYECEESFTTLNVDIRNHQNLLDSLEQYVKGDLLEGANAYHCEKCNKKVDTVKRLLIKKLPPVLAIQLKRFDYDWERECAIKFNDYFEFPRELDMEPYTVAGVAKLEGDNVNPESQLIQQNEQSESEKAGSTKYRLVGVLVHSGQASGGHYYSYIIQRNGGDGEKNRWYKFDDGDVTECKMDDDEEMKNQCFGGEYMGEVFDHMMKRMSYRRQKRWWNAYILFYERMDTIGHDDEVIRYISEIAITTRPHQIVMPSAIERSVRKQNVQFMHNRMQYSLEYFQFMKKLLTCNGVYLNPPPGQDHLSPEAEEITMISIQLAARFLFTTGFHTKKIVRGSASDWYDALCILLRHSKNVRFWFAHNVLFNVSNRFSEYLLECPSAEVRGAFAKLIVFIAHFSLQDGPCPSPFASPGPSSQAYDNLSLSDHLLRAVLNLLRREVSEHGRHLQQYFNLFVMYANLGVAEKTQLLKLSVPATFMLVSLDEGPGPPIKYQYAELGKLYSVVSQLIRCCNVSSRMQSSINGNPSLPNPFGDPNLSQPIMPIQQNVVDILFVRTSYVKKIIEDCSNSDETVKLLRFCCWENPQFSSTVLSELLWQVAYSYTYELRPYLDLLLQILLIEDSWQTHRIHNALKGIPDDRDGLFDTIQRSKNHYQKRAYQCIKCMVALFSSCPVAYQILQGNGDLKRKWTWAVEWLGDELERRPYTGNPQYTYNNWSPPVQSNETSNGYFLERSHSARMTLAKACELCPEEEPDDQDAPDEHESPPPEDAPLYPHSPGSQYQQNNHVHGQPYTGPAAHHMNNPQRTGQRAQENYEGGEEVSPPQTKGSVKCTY
# experiment: DUB activity profiling in cell lysates, USP9x labeling
# condition description: read-out: IC50, inhibition of USP9x labeling
readout kind: pIC50
pIC50 is a log-scale quantity: -log10 of the concentration expressed in molar.

S=C=NCCc1ccccc1 [PEITC, phenethyl ITC] :: 4.82

Attention now shifts to the item below.
Summary line: S=C=NCc1ccccc1 [BITC, benzyl ITC] , USP9x (Mus musculus, UniProt P70398), reported pIC50 = 4.57

###

Catalogue of compounds with associated IC50
# system under test: UCH37 (Mus musculus, UniProt Q9WUP7)
# Sequence (Q9WUP7 1-329): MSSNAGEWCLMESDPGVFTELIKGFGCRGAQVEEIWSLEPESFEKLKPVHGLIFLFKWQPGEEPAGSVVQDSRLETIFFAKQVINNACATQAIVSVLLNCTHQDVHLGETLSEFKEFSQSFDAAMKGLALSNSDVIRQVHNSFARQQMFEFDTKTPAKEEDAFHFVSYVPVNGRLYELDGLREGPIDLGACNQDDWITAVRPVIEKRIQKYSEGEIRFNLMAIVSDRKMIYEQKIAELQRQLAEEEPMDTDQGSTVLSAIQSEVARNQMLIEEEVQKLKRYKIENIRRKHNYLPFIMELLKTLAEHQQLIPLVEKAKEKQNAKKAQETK
# experiment: DUB activity profiling in cell lysates, UCH37 labeling
# condition description: read-out: IC50, inhibition of UCH37 labeling
Answer format: numeric, µM implied, no suffix.

S=C=NCCc1ccccc1 :: 13

Attention now shifts to the item below.
IC50 reading for S=C=NCc1ccccc1 : 22

###

# system under test: UniProtKB B1AY13
# experiment: DUB activity profiling in cell lysates, USP24 labeling
# condition description: read-out: IC50, USP24 labeling
readout kind: IC50 (µM)
Answer format: numeric, µM implied, no suffix.

S=C=NCc1ccccc1 :: 56

IC50 reading for S=C=NCCc1ccccc1 : 28

###

# system under test: USP9x in BaF3/p210 cells (Mus musculus)
# Sequence (P70398 whole entry): as the sequence (P70398 whole entry) above
# experiment: USP9x inhibition in living cells
# condition description: read-out: IC50, USP9x inhibition in cells; BaF3/p210 cells treated 4 h
Catalogue of compounds with associated IC50
Answer format: numeric, µM implied, no suffix.

S=C=NCCc1ccccc1 :: 7

IC50 reading for S=C=NCc1ccccc1 : 4
